Test system: Eleusine indica (ELEIN)
measurement.protocol: Post-emergence efficacy, glasshouse spray test
Assay type: in vivo
conditions.used: Eleusine indica, post-emergence, 312 h; application rate 500 g/Ha; evaluated after 13 days; read-out: Control of weed species ELEIN after post-emergence application (100=total damage to plant; 0=no damage to plant)
# pest or weed control at 500 g/ha annotations
quantity.measured: pest or weed control at 500 g/ha (%)

* CC(C(=O)OC(C)(C)C)[n+]1ccc2ccccc2n1 (stereo not drawn) | 30
* CNC(=O)c1c[n+](CCS(=O)(=O)[O-])nc2ccccc12 | 30
* O=S(=O)([O-])CCC[n+]1cc(C(Cl)(Cl)Cl)c2ccccc2n1 | 20
* CC(=O)Nc1ccc2cc[n+](CCS(=O)(=O)[O-])nc2c1 | 80
* CN(C)C(=O)c1ccc2cc[n+](CCS(=O)(=O)[O-])nc2c1 | 100
* CC(CC(=O)O)[n+]1ccc2ccccc2n1 (stereo not drawn) [Compound A115, 2,2,2-trifluoroacetate] | 60
* CNC(=O)c1c[n+](CCC(=O)O)nc2ccccc12 | 100
* COC(=O)c1ccc2n[n+](CCS(=O)(=O)[O-])ccc2c1 | 10
* O=C(NC(C[n+]1ccc2ccccc2n1)C(=O)O)OCc1ccccc1 (stereo not drawn) | 30

====

System: Euphorbia heterophylla (EPHHL)
measurement.protocol: Post-emergence efficacy, glasshouse spray test
Type: in vivo
conditions.used: Euphorbia heterophylla, post-emergence, 312 h; application rate 500 g/Ha; evaluated after 13 days; read-out: Control of weed species EPHHL after post-emergence application (100=total damage to plant; 0=no damage to plant)
Procedure: Seeds of a variety of test species were sown in standard soil in pots. […] After 13 days the test was evaluated (100=total damage to plant; 0=no damage to plant). […]
quantity.measured: pest or weed control at 500 g/ha (%)

* COC(=O)c1ccc2cc[n+](CCS(=O)(=O)[O-])nc2c1 | 50
* COC(=O)C(C)[n+]1ccc2ccccc2n1 (stereo not drawn) | 60
* Cc1cccc2n[n+](CCS(=O)(=O)[O-])ccc12 | 80
* CC(C)(C[n+]1ccc2ccccc2n1)C(=O)O [Compound A113, 2,2,2-trifluoroacetate] | 10
* CC(=O)Nc1ccc2cc[n+](CCS(=O)(=O)[O-])nc2c1 | 30
* CC(C(=O)OC(C)(C)C)[n+]1ccc2ccccc2n1 (stereo not drawn) | 30
* N#Cc1cccc2cc[n+](CCS(=O)(=O)[O-])nc12 | 60
* CNC(=O)c1c[n+](CCC(=O)O)nc2ccccc12 | 60
* C[C@@H](CNS(=O)(=O)[O-])[n+]1ccc2ccccc2n1 | 60
* CC(CC(=O)O)[n+]1ccc2ccccc2n1 (stereo not drawn) [Compound A115, 2,2,2-trifluoroacetate] | 20
* CN(C)C(=O)c1cccc2cc[n+](CCS(=O)(=O)[O-])nc12 | 60
* CN(C)C(=O)c1ccc2cc[n+](CCS(=O)(=O)[O-])nc2c1 | 30
* O=S(=O)([O-])CC[n+]1ccc2cc(-c3ccccc3)ccc2n1 | 20
* CCOP(=O)(O)CC[n+]1ccc2ccccc2n1 | 40
* O=S(=O)([O-])CC[n+]1ccc2cc(C(F)(F)F)ccc2n1 | 40
* CNC(=O)c1c[n+](CCS(=O)(=O)[O-])nc2ccccc12 | 20
* COC(=O)c1cccc2cc[n+](CCS(=O)(=O)[O-])nc12 | 30
* COC(=O)c1ccc2n[n+](CCS(=O)(=O)[O-])ccc2c1 | 40
* CN(C)C(=O)c1ccc2n[n+](CCS(=O)(=O)[O-])ccc2c1 | 70
* O=S(=O)([O-])CCC[n+]1cc(C(Cl)(Cl)Cl)c2ccccc2n1 | 40
* O=C(NC(C[n+]1ccc2ccccc2n1)C(=O)O)OCc1ccccc1 (stereo not drawn) | 50
